Tested on: RARb homodimer (NR concentration 270 nM)
Assay: PBM binding z-score (relative to random genomic background probes); higher = stronger binding; sequences stand for … in GC…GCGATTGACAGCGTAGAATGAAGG
Cut-off 2 on PBM binding z-score, inclusive. At or above means T; below means F.

Reference set (3 entries):
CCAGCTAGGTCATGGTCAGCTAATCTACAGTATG = T
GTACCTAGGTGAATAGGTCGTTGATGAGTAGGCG = F
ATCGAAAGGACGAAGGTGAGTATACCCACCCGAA = F

Exam item: decide whether the reported PBM binding z-score for "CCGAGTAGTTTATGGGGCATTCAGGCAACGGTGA" is at least 2.
F

Same read-out for "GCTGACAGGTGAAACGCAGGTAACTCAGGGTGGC" ?
F

Same read-out for "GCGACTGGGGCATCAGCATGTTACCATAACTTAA" ?
F

Same read-out for "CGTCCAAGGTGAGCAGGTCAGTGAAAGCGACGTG" ?
T

Same read-out for "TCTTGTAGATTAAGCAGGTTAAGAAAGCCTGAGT" ?
F

Same read-out for "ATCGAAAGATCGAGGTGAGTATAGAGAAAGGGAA" ?
F

Same read-out for "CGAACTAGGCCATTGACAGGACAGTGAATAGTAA" ?
F

Data origin, for the record: the supplement of paper PMC6555819
